test: cell viability in Huh7 cells, primary screen, cytotoxicity control for HCV replication inhibitor project, CellTiter-Glo luminescence, basal, 48 h (AID 1143); conditions: Huh7 HCV replicon, higher = more signal, called active from +8 up or from −8 down;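 note: Huh7 hepatoma cells carrying a hepatitis C replication reporter with no stimulus; test concentration not given here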
Assign Met whenever z-score does not fall below -0.2; assign Not met whenever it does.

{"compound": "Cc1ccc(S[C@]2(C(=O)NCC(F)(F)F)CC(=O)N(Cc3ccccc3Cl)[C@@H]2c2ccc(CO)cc2I)cc1", "class_assignment": "Not met"}
{"compound": "CO[C@H]([C@@H](C)[C@H](OC)c1ccccc1)[C@H](C)[C@@H](OC)[C@H](C)C(C)=O", "class_assignment": "Met"}
{"compound": "CC(CCN1CCCCc2nc(C)c(C)cc21)=NOC(C)CN1CCCc2nc(C)c(C)cc21 (stereo not drawn)", "class_assignment": "Met"}

Hi team, for Cc1ccc(F)cc1S(=O)(=O)N[C@@H]1CCN(Cc2ccc(CC(C)C)cc2)C1 , is the recorded z-score at or above -0.2?
Not met

Continue with O[C@@H](Cc1ccccc1)[C@H]1C2C=CCCC(c3ccccc3)=C2CN1Cc1cccc(Cl)c1 (stereo partly drawn)
Not met

Continue with CCN1C(=O)[C@H]2[C@H]3[C@H](O)[C@H](O)CC(=NO[C@@H]4O[C@H](CO)[C@@H](O)[C@H](O)[C@H]4O)[C@@H]3CC[C@H]2C1=O
Met

Continue with C=CC[C@@H]1C=C[C@H](ON=C(C)CCN2CCc3nc(CC)c(CC)cc3C2)[C@@H](CO)O1
Not met

Continue with CCCNC(=O)OC[C@H]1O[C@H](CCON=C[C@@H](OC)[C@H](C)C=CCC(=O)OC)C=C[C@@H]1Oc1ccc(OC)cc1
Not met
